- System: PC-3 prostate
- protocol notes: NCI-60 one-dose screen, 48 h (100 = growth as untreated, 0 = no growth, -100 = all killed)
- particulars: 10 µM
The panel holds about 83,000 compounds, 20% with a hit somewhere; the sample as a whole holds those more often.
measured quantity: growth (%)
One number for each entry, in %.

Take a look at these entries with their results.
- compound: "CC1=C(CN(O)C(N)=O)C2=C(C)C3(CC3)[C@](C)(O)C(=O)C2=C1"
  target system: "PC-3 prostate"
  measured quantity: "growth"
  observed value: 8.93
- compound: "C=C1[C@@H](C)C2[C@H](Cc3ccccc3)NC(=O)[C@]23[C@H](OC(C)=O)/C=C/[C@@](C)(O)C(=O)[C@@H](C)C/C=C/[C@H]3[C@@H]1O (some centres undefined)"
  target system: "PC-3 prostate"
  measured quantity: "growth"
  observed value: 69.4
- compound: "N#Cc1nc(-c2ccccc2)oc1N1CCC(S(=O)(=O)F)CC1"
  target system: "PC-3 prostate"
  measured quantity: "growth"
  observed value: 99.3
- compound: "CC1=C2C(=C[C@@](C)(COC(=O)c3ccc(S(=O)(=O)F)cc3)[C@@H]2OC(=O)c2ccc(S(=O)(=O)F)cc2)C(=O)[C@](C)(O)C12CC2"
  target system: "PC-3 prostate"
  measured quantity: "growth"
  observed value: 16.2
- compound: "COc1cc(OC)c(S(=O)(=O)N(CCCl)CCCl)cc1C(=O)/C=C/c1ccc(Cl)cc1"
  target system: "PC-3 prostate"
  measured quantity: "growth"
  observed value: 70.3

Parameters: items (list). Returns: growth for each item.
1. CC1=C2C(=O)[C@](C)(CO)C=C2C(=O)[C@](C)(O)C12CC2
2. CC1=C(CN(O)C(N)=O)C2=C(C)C3(CC3)[C@@](C)(O)C(=O)C2=C1
3. N#Cc1c(-n2c(Br)c(Br)c3cc(Br)ccc32)[nH]c2c(Br)cc(Br)cc12
4. COc1cc2c(cc1OC)[C@@H]1N(CC2)C(=O)c2ccccc2[C@@]1(C)C(=O)O

[21.6, 2.36, -8.16, 104]
